- Experimental protocol: High-throughput Equilibrium Solubility measurement
- Assay type: physicochemical
- Run conditions: phosphate buffer, pH 6.8
Outcome measure: solubility (µM)
Unit µM implied. Number only.

Incoming: Returns the measured solubility for the input molecule. Input: N#Cc1c[nH]c2c(C(=O)N3CCN(CCc4ccc(F)cc4)CC3)cccc12
Outgoing: 17
